Source: patent US11214614B2

# Hu LTBP1-proTGFβ1 Koff annotations
- Target Desc: huLTBP1 proTGFβ1 (Homo sapiens, UniProt P01137+Q14766)
- Sequence (P01137 30-390): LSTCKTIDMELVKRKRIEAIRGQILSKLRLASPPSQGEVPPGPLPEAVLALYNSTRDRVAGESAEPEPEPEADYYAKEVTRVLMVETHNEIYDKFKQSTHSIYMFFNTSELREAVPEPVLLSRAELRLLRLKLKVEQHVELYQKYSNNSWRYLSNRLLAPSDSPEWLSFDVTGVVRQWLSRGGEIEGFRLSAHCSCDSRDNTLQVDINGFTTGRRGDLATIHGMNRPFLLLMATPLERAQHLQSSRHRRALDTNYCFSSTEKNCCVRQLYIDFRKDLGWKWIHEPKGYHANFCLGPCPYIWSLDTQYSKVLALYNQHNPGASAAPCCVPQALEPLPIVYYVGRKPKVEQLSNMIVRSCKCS
- Sequence (Q14766 347-1721 limits assumed): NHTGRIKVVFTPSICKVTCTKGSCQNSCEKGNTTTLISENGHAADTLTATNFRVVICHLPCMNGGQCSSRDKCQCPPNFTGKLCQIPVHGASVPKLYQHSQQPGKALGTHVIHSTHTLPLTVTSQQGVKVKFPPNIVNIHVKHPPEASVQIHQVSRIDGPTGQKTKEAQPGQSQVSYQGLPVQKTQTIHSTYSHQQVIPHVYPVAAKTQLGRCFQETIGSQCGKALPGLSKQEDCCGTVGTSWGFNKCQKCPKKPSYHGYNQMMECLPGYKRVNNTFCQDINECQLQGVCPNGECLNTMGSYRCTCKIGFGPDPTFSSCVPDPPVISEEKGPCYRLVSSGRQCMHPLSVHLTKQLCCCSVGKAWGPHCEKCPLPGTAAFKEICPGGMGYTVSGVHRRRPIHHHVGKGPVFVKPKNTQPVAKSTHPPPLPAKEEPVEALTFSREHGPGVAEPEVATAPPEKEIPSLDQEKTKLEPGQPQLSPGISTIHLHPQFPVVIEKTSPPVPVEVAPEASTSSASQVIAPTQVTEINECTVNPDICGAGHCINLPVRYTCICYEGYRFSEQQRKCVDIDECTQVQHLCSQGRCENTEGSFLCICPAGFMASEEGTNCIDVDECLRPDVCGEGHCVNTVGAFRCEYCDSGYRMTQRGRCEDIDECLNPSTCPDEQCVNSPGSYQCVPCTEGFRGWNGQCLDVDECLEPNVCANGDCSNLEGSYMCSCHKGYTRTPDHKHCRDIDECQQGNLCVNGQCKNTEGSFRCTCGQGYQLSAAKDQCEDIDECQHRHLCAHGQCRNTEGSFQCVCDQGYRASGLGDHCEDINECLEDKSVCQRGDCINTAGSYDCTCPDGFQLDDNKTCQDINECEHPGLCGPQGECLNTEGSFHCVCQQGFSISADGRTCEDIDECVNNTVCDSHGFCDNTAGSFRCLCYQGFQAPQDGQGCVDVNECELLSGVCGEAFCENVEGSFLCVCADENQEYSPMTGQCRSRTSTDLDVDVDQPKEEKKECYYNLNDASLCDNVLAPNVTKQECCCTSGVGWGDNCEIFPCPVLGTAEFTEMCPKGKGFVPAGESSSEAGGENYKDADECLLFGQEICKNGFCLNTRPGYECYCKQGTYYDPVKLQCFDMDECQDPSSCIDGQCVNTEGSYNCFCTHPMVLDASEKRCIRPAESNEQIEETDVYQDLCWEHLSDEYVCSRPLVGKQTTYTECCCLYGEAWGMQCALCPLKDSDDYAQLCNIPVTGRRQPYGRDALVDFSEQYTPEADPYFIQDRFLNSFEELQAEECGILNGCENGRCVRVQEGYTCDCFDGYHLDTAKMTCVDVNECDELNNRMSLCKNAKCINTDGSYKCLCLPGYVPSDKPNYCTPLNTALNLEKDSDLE
- Assay Summary: Octet (BLI) binding, IgG captured on AHC tips, antigen at 100 nM
- Conditions Used: Table 9; cycle 3; IgG1-agly; 5-minute dissociation
Number in s⁻¹, nothing else.

Examples from the recorded data:
Molecule	Value Units	Hu LTBP1-proTGFβ1 Koff
SR-AB34: cycle 3 light chain-optimized antibody, lineage SR-AB22; CDRs SEQ ID NO: 130-135 (antibody, V domains shown) VH: QVQLVESGGGVVQPGRSLRLSCAASGFTFRSYVMHWVRQAPGKGLEWVAVISHEGSLKYYADSVKGRFTISRDNSKNTLYLQMNSLRAEDTAVYYCAVPRIAARRGGFGYWGQGTLVTVSS VL: NFMLTQPHSVSESPGKTVTISCTRSSGNIDNNYVQWYQQRPGSSPTTVIYEDNQRPSGVPDRFSGSIDSSSNSASLTISGLKTEDEADYYCQSYDYDAQGVVFGGGTKLTVL	s⁻¹	6e-05
SR-AB62: cycle 3 light chain-optimized antibody, lineage SR-AB24; CDRs SEQ ID NO: 286-291 (antibody, V domains shown) VH: QLQLQESGPGLAKPSETLSLTCTVSGGSIRSSSYYWGWIRQPPGKGLEWIGSISYSATTYYNPSLKSRVTISVDTSKNQFSLKLSSVTAADTAVYYCASDPSYDSAAGMDVWGQGTTVTVSS VL: DIQMTQSPSSLSASVGDRVTITCRASKVISSYLNWYQQKPGKAPKLLIYYASSLQSGVPSRFSGSGSGTDFTLTISSLQPEDFATYYCQQSNDWPFTFGGGTKVEIK	s⁻¹	6.82e-05
SR-AB37: cycle 3 light chain-optimized antibody, lineage SR-AB22; CDRs SEQ ID NO: 136-141 (antibody, V domains shown) VH: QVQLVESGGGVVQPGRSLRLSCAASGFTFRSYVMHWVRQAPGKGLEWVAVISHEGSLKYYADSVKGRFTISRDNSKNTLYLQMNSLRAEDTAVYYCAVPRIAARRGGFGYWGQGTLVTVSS VL: NFMLTQPHSVSESPGKTVTISCTRSSGLIDDNYVQWYQQRPGSSPTTVIYEDNQRPSGVPDRFSGSIDSSSNSASLTISGLKTEDEADYYCQSYDSDLQRVVFGGGTKLTVL	s⁻¹	0.000118
SR-AB45: cycle 3 light chain-optimized antibody, lineage SR-AB23; CDRs SEQ ID NO: 184-189 (antibody, V domains shown) VH: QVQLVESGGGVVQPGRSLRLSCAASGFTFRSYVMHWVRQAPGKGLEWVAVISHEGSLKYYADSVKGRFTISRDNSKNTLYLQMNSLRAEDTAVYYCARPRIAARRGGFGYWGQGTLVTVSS VL: NFMLTQPHSVSESPGKTVTISCTRSSGAIDDNYVQWYQQRPGSSPTTVIYEDFQRPSGVPDRFSGSIDSSSNSASLTISGLKTEDEADYYCQSYDDDLQGVVFGGGTKLTVL	s⁻¹	6e-05
SR-AB31: cycle 3 light chain-optimized antibody, lineage SR-AB22; CDRs SEQ ID NO: 124-129 (antibody, V domains shown) VH: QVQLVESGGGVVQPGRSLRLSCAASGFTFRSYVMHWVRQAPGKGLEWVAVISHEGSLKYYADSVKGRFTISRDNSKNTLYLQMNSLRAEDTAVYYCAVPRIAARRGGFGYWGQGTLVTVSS VL: NFMLTQPHSVSESPGKTVTISCTRSSGNIDNNYVQWYQQRPGSSPTTVIYEDNQRPSGVPDRFSGSIDSSSNSASLTISGLKTEDEADYYCQSYDFNNQGVVFGGGTKLTVL	s⁻¹	9.89e-05
SR-AB63: cycle 3 antibody, lineage SR-AB26; CDRs SEQ ID NO: 292-297; HCVR SEQ ID NO: 360, LCVR SEQ ID NO: 361 (antibody, V domains shown) VH: QLQLQESGPGLVKPSETLSLTCTVSGGSIRSSSYYWGWIRQPPGKGLEWIGSISYSATTYYNPSLKSRVTISVDTSKNQFSLKLSSVTAADTAVYYCAGDPSYDSIAGMQVWGQGTTVTVSS VL: DIQLTQSPSSLSASVGDRVTITCRASQSISSYLNWYQQKPGKAPKLLIYAASNLQSGVPSRFSGSGSGTDFTLTISSLQPEDFATYYCQQSFDWPLTFGGGTKVEIK	s⁻¹	7.24e-05

Prompt: Consider the molecule SR-AB42: cycle 3 antibody, lineage SR-AB23; CDRs SEQ ID NO: 166-171; HCVR SEQ ID NO: 318, LCVR SEQ ID NO: 319 (antibody, V domains shown) VH: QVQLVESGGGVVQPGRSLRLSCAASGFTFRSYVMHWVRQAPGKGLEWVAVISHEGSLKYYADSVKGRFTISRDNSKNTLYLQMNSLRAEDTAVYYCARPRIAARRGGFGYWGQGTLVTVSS VL: NFMLTQPHSVSESPGKTVTISCTRSSGNIDNNYVQWYQQRPGSSPTTVIYEDNQRPSGVPDRFSGSIDSSSNSASLTISGLKTEDEADYYCQSYDYDTQGVVFGGGTKLTVL and give its recorded Hu LTBP1-proTGFβ1 Koff.
Response: 6e-05

Prompt: Consider the molecule SR-AB41: cycle 3 light chain-optimized antibody, lineage SR-AB23; CDRs SEQ ID NO: 160-165 (antibody, V domains shown) VH: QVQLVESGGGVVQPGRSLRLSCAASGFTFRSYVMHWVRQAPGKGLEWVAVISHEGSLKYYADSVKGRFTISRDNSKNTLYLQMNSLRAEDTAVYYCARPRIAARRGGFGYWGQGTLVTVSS VL: NFMLTQPHSVSESPGKTVTISCTRSSGNIDNNYVQWYQQRPGSSPTTVIYEDNQRPSGVPDRFSGSIDSSSNSASLTISGLKTEDEADYYCQSYDYDNQAVVFGGGTKLTVL and give its recorded Hu LTBP1-proTGFβ1 Koff.
Response: 6e-05
